Hello, the source for this data is patent US10544154B2, in case you need it.

assay: Plasma stability, rat plasma (HPLC-MS); type: in vitro ADME; conditions: 10 μM, 37° C., 120 min
OBSERVABLE: % remaining at time point in minutes, 120 min (%)

[[record]]
compound = "CCCCCCCCCCCCCC(=O)Oc1ccc2c3c1O[C@H]1C(=O)CC[C@@]4(O)C(C2)N(CC2CC2)CC[C@]314 [Compound 57]"
value_reported = 3.2

[[record]]
compound = "CCCCCCCCCCOC(=O)Oc1ccc2c3c1O[C@H]1C(=O)CC[C@@]4(O)C(C2)N(CC2CC2)CC[C@]314 [Compound 10]"
value_reported = 0

[[record]]
compound = "C=C1CC[C@@]2(O)C3Cc4ccc(OC(=O)OCCCCCCCC)c5c4[C@@]2(CCN3CC2CC2)[C@H]1O5 [Compound 17]"
value_reported = 0

[[record]]
compound = "C=C1CC[C@@]2(O)C3Cc4ccc(OC(=O)CCCCCCCCCCC)c5c4[C@@]2(CCN3CC2CC2)[C@H]1O5 [Compound 59, reference compound]"
value_reported = 0.7

[[record]]
compound = "CCCCCCCCCCCCOC(=O)Oc1ccc2c3c1O[C@H]1C(=O)CC[C@@]4(O)C(C2)N(CC2CC2)CC[C@]314 [Compound 11]"
value_reported = 0.3

[[record]]
compound = "C=C1CC[C@@]2(O)C3Cc4ccc(OC(=O)OCCCCCCCCCC)c5c4[C@@]2(CCN3CC2CC2)[C@H]1O5 [Compound 18]"
value_reported = 0.3


###

assay: Polymorph screening of solid state drug substances; format: physicochemical; settings: Acetone, after stirring at 50 °C for 72 hours
OBSERVABLE: Dry method and appearance

[[record]]
compound = "CCCCCCCCCCCCOC(=O)Oc1ccc2c3c1O[C@H]1C(=O)CC[C@@]4(O)C(C2)N(CC2CC2)CC[C@]314 [Compound 11]"
value_reported = "Evaporation/white powder"

[[record]]
compound = "C=C1CC[C@@]2(O)C3Cc4ccc(OC(=O)NC(C)(C)C)c5c4[C@@]2(CCN3CC2CC2)[C@H]1O5 [Compound 40]"
value_reported = "Evaporation/white powder"

[[record]]
compound = "C=C1CC[C@@]2(O)C3Cc4ccc(OC(=O)CCCCCCCCCCCCCCCCCCCCC)c5c4[C@@]2(CCN3CC2CC2)[C@H]1O5 [Compound 14]"
value_reported = "Evaporation/white powder"


###

experiment: Polymorph screening of solid state drug substances; assay type: physicochemical; conditions: Heptane, dried solid
OBSERVABLE: XRPD results (Dried)

[[record]]
smiles_string = "C=C1CC[C@@]2(O)C3Cc4ccc(OC(=O)OCCCCCCCCCCCCCCCC)c5c4[C@@]2(CCN3CC2CC2)[C@H]1O5"
observable = "XRPD results (Dried)"
value_reported = "Pattern A"

[[record]]
smiles_string = "CCCCCCCCCCCCCCCCOC(=O)Oc1ccc2c3c1O[C@H]1C(=O)CC[C@@]4(O)C(C2)N(CC2CC2)CC[C@]314"
observable = "XRPD results (Dried)"
value_reported = "Pattern A"


###

assay: Plasma stability, rat plasma (HPLC-MS); format: in vitro ADME; conditions: 10 μM, 37° C., 15 min
The compounds listed here are annotated with their % remaining at time point in minutes, 15 min.
OBSERVABLE: % remaining at time point in minutes, 15 min (%)

[[record]]
compound = "CCCCCCCCCCCCOC(=O)Oc1ccc2c3c1O[C@H]1C(=O)CC[C@@]4(O)C(C2)N(CC2CC2)CC[C@]314 [Compound 11]"
value_reported = 0.7

[[record]]
compound = "C=C1CC[C@@]2(O)C3Cc4ccc(OC(=O)CCCCCCCCCCC)c5c4[C@@]2(CCN3CC2CC2)[C@H]1O5 [Compound 59, reference compound]"
value_reported = 5.9

[[record]]
compound = "C=C1CC[C@@]2(O)C3Cc4ccc(OC(=O)CCCCCCCCCCCCCCCCCCCCC)c5c4[C@@]2(CCN3CC2CC2)[C@H]1O5 [Compound 14]"
value_reported = 94


###

experiment: Plasma stability, rat plasma (HPLC-MS); assay type: in vitro ADME; conditions: 10 μM, 37° C., 15 min
The compounds listed here are annotated with their % remaining at time point in minutes, 15 min.
OBSERVABLE: % remaining at time point in minutes, 15 min (%)

[[record]]
compound = "C=C1CC[C@@]2(O)C3Cc4ccc(OC(=O)OCCCCCCCCCC)c5c4[C@@]2(CCN3CC2CC2)[C@H]1O5"
value_reported = 0.6

[[record]]
compound = "CCCCCCCCCCOC(=O)Oc1ccc2c3c1O[C@H]1C(=O)CC[C@@]4(O)C(C2)N(CC2CC2)CC[C@]314"
value_reported = 0

[[record]]
compound = "CCCCCCCCCCCC(=O)OCN1C(=O)CCc2ccc(OCCCCN3CCN(c4cccc(Cl)c4Cl)CC3)cc21 [Aripiprazole Lauroxil, reference compound]"
value_reported = 84


###

test: Plasma stability, rat plasma (HPLC-MS); type: in vitro ADME; details: 10 μM, 37° C., 0 min
The compounds listed here are annotated with their % remaining at time point in minutes, 0 min.
OBSERVABLE: % remaining at time point in minutes, 0 min (%)

[[record]]
compound = "CCCCCCCCCCCC(=O)OCN1C(=O)CCc2ccc(OCCCCN3CCN(c4cccc(Cl)c4Cl)CC3)cc21 [Aripiprazole Lauroxil, reference compound]"
value_reported = 100

[[record]]
compound = "C=C1CC[C@@]2(O)C3Cc4ccc(OC(=O)CCCCCCCCCCCCCCCCCCCCC)c5c4[C@@]2(CCN3CC2CC2)[C@H]1O5"
value_reported = 100

[[record]]
compound = "CCCCCCCCOC(=O)Oc1ccc2c3c1O[C@H]1C(=O)CC[C@@]4(O)C(C2)N(CC2CC2)CC[C@]314"
value_reported = 100

[[record]]
compound = "C=C1CC[C@@]2(O)C3Cc4ccc(OC(=O)OCCCCCCCCCCCCC)c5c4[C@@]2(CCN3CC2CC2)[C@H]1O5"
value_reported = 100

[[record]]
compound = "C=C1CC[C@@]2(O)C3Cc4ccc(OC(=O)OCCCCCCCCCC)c5c4[C@@]2(CCN3CC2CC2)[C@H]1O5"
value_reported = 100

[[record]]
compound = "CCCCCCCCCCCCCCCCCCCC(=O)Oc1ccc2c3c1O[C@H]1C(=O)CC[C@@]4(O)C(C2)N(CC2CC2)CC[C@]314"
value_reported = 100


###

assay: Polymorph screening of solid state drug substances; assay type: physicochemical; conditions: Heptane, dried solid
OBSERVABLE: XRPD results (Dried)

[[record]]
molecule = "CCCCCCCCCCOC(=O)Oc1ccc2c3c1O[C@H]1C(=O)CC[C@@]4(O)C(C2)N(CC2CC2)CC[C@]314 [Compound 10]"
observable = "XRPD results (Dried)"
value_reported = "Pattern A"

[[record]]
molecule = "C=C1CC[C@@]2(O)C3Cc4ccc(OC(=O)OCCCCCCCCCCCCCC)c5c4[C@@]2(CCN3CC2CC2)[C@H]1O5 [Compound 31]"
observable = "XRPD results (Dried)"
value_reported = "Pattern A"

[[record]]
molecule = "C=C1CC[C@@]2(O)C3Cc4ccc(OC(=O)NC(C)(C)C)c5c4[C@@]2(CCN3CC2CC2)[C@H]1O5 [Compound 40]"
observable = "XRPD results (Dried)"
value_reported = "Pattern A"

[[record]]
molecule = "CCCCCCCCCCCCOC(=O)Oc1ccc2c3c1O[C@H]1C(=O)CC[C@@]4(O)C(C2)N(CC2CC2)CC[C@]314 [Compound 11]"
observable = "XRPD results (Dried)"
value_reported = "Pattern B"

[[record]]
molecule = "C=C1CC[C@@]2(O)C3Cc4ccc(OC(=O)CCCCCCCCCCCCCCCCCCCCC)c5c4[C@@]2(CCN3CC2CC2)[C@H]1O5 [Compound 14]"
observable = "XRPD results (Dried)"
value_reported = "Pattern B"

[[record]]
molecule = "C=C1CC[C@@]2(O)C3Cc4ccc(OC(=O)CCCCCCCCCCCCCCCCCCC)c5c4[C@@]2(CCN3CC2CC2)[C@H]1O5 [Compound 16]"
observable = "XRPD results (Dried)"
value_reported = "Pattern A"


###

test: Polymorph screening of solid state drug substances; type: physicochemical; conditions: EtOAc, dried solid
OBSERVABLE: XRPD results (Dried)

[[record]]
smiles_string = "CCCCCCCCCCCCOC(=O)Oc1ccc2c3c1O[C@H]1C(=O)CC[C@@]4(O)C(C2)N(CC2CC2)CC[C@]314"
value_reported = "Pattern A"

[[record]]
smiles_string = "C=C1CC[C@@]2(O)C3Cc4ccc(OC(=O)OCCCCCCCCCCCCCCCC)c5c4[C@@]2(CCN3CC2CC2)[C@H]1O5"
value_reported = "Pattern A"


###

assay: Plasma stability, rat plasma (HPLC-MS); type: in vitro ADME; conditions: 10 μM, 37° C., 1440 min
OBSERVABLE: % remaining at time point in minutes, 1440 min (%)

[[record]]
molecule = "C=C1CC[C@@]2(O)C3Cc4ccc(OC(=O)OCCCCCCCC)c5c4[C@@]2(CCN3CC2CC2)[C@H]1O5"
value_reported = 0

[[record]]
molecule = "C=C1CC[C@@]2(O)C3Cc4ccc(OC(=O)CCCCCCCCCCC)c5c4[C@@]2(CCN3CC2CC2)[C@H]1O5 [Compound 59, reference compound]"
value_reported = 0

[[record]]
molecule = "CCCCCCCCCCCCOC(=O)Oc1ccc2c3c1O[C@H]1C(=O)CC[C@@]4(O)C(C2)N(CC2CC2)CC[C@]314"
value_reported = 0

[[record]]
molecule = "CCCCC/C=C\\C/C=C\\CCCCCCCC(=O)Oc1ccc2c3c1O[C@H]1C(=O)CC[C@@]4(O)C(C2)N(CC2CC2)CC[C@]314"
value_reported = 1.9

[[record]]
molecule = "C=C1CC[C@@]2(O)C3Cc4ccc(OC(=O)CCCCCCC/C=C/CCCCCCCC)c5c4[C@@]2(CCN3CC2CC2)[C@H]1O5"
value_reported = 35

[[record]]
molecule = "CCCCCCCCCCOC(=O)Oc1ccc2c3c1O[C@H]1C(=O)CC[C@@]4(O)C(C2)N(CC2CC2)CC[C@]314"
value_reported = 0

[[record]]
molecule = "C=C1CC[C@@]2(O)C3Cc4ccc(OC(=O)CCCCCCCCCCCCCCCCCCCCC)c5c4[C@@]2(CCN3CC2CC2)[C@H]1O5"
value_reported = 120

[[record]]
molecule = "C=C1CC[C@@]2(O)C3Cc4ccc(OC(=O)OCCCCCCCCCCCC)c5c4[C@@]2(CCN3CC2CC2)[C@H]1O5"
value_reported = 1.6

[[record]]
molecule = "CCCCCCCCCCCC(=O)OCN1C(=O)CCc2ccc(OCCCCN3CCN(c4cccc(Cl)c4Cl)CC3)cc21 [Aripiprazole Lauroxil, reference compound]"
value_reported = 46

[[record]]
molecule = "CCCCCCCCCCCCCC(=O)Oc1ccc2c3c1O[C@H]1C(=O)CC[C@@]4(O)C(C2)N(CC2CC2)CC[C@]314"
value_reported = 0

[[record]]
molecule = "C=C1CC[C@@]2(O)C3Cc4ccc(OCOC(=O)OCCCCCCCCCCCC)c5c4[C@@]2(CCN3CC2CC2)[C@H]1O5"
value_reported = 3

[[record]]
molecule = "CCCCCCCCOC(=O)Oc1ccc2c3c1O[C@H]1C(=O)CC[C@@]4(O)C(C2)N(CC2CC2)CC[C@]314"
value_reported = 0

[[record]]
molecule = "CCCCCCCCCCCCCCC(=O)Oc1ccc2c3c1O[C@H]1C(=O)CC[C@@]4(O)C(C2)N(CC2CC2)CC[C@]314"
value_reported = 1.8

[[record]]
molecule = "C=C1CC[C@@]2(O)C3Cc4ccc(OC(=O)OCCCCCCCCCC)c5c4[C@@]2(CCN3CC2CC2)[C@H]1O5"
value_reported = 0

